Molecular target: T1, ECF16_3622
T1 chain: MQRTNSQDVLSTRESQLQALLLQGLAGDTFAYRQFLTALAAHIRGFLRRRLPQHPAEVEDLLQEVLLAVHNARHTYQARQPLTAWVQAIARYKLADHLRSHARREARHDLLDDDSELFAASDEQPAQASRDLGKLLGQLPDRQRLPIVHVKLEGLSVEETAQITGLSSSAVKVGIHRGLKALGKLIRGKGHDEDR
measuredProperty: fold repression
// no unit, no text: just the number

In plain terms, AS27_1331 (protein) MSAADKDPDKHSADADPPLTVELLADLQAGLLDDATAARIRSRVRSDPQAQQILRALNRVRRDVAAMGADPAWGPAARPAVVDSISAALRSARPNSSPGAAHAARPHVHPVRMIAGAAGLCAVATAIGVGAVVDAPPPAPSAPTTAQHITVSKPAPVIPLSRPQVLDLLHHTPDYGPPGGPLGDPSRRTSCLSGLGYPASTPVLGAQPIDIDARPAVLLVIPADTPDKLAVFAVAPHCSAADTGLLASTVVPRA has a documented fold repression of 6.93

In plain terms, AS16_973 (protein) MKTDDLIALLAAGEGPVPRHAVGRRMAVAALGGLTAALLLTITLYGVRSDITEVAQTPLFWGKVAFPTSLALIGLWLTSRLARPGGKGAAGWKMLGLPLLLVWCGAAVSIAGAPVDARADLLFGRTWRTCALNIALLSVPAFVTVFWALKGLAPTRLRLAGAAGGLLAGSSATVAYCLHCPEMGVPFWGVWYVLGMLVPTVLGAWWGPRMLRW has a documented fold repression of 57
